Recorded values, source patent US20260217797A1.

assayed_target: T1, MERS-CoV [change] (MERS-CoV, UniProt K9N5Q8 18-725)
T1 sequence: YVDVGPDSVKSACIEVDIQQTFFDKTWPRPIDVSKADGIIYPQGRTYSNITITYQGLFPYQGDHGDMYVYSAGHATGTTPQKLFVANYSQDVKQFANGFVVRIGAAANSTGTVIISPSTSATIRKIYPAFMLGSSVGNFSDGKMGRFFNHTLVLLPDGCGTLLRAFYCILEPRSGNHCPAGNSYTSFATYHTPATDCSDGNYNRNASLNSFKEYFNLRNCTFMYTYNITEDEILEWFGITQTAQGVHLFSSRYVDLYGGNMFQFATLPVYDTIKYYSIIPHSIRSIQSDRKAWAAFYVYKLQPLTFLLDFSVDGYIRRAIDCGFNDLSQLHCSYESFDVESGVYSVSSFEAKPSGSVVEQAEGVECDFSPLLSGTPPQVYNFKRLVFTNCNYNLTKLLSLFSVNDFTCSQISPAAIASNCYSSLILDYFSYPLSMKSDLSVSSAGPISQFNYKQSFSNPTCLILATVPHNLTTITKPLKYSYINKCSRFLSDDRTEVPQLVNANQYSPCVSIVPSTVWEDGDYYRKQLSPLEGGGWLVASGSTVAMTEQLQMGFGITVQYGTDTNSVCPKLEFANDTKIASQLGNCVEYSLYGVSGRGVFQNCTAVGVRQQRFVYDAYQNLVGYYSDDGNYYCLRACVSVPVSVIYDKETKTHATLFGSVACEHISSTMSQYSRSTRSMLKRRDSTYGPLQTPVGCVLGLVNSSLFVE
test_method_notes: Octet BLI, IgG, monovalent
measured_metric: binding result

binder	measured_metric	obs_value
A-3 (antibody, V domains shown) VH: EVQLLESGPGLVKPSETLSLTCTVSGGSINSRSYYWGWIRQPPGKGLEWIGSIYYSGSTYYNPSLKSRVTISVDTSKNQFSLKLSSVIAADTAVYFCARLEQWELPGGWFDPWGQGTLVTVSS VL: NFMLTQPHSVSESPGKTVTISCTRSSGSIASNYVQWYQQRPGSAPTTVIYEDNQRPSGVPDRFSGSIDISSNSASLTISGLKTEDEADYSCQSSDSSNVVFGGGTKLTVL	binding result	no binding
A-17 (antibody, V domains shown) VH: EVQLQESGPGLVKPSETLSLTCTVSGGSISSYYWSWIRQPPGKGLEWIGYIYYSGSTNYNPSLKSRVTISVGTSKNQFSLKLSSVTAADTAVYYCAKSASDEPPPSTAAAGSHYYYYGMDVWGQGTTVTVSS VL: EIVMTQSPLSLPVTPGEPASISCRSSQSLLHSNGYNYLDWYLQKPGQSPHVLIYLGSNRASGVPDRFSGSGSGTDFTLKISRVEAEDVGVYYCMQALQTPNTFGQGTKLEIK	binding result	no binding
